measurement parameters: in acetone, 283.15 K
readout label: solubility (mole fraction)
Respond numerically, and do not add a unit to the figure.

# solubility (mole fraction) (compound: `CCCCc1nc(Cl)c(C(=O)OCOC(=O)OC(C)C)n1Cc1ccc(-c2ccccc2-c2nn[nH]n2)cc1` ) is 0.0112

###

measurement parameters: in acetonitrile, 298.15 K
readout label: solubility (mole fraction)

# solubility (mole fraction) (compound: `CCCCc1nc(Cl)c(C(=O)OCOC(=O)OC(C)C)n1Cc1ccc(-c2ccccc2-c2nn[nH]n2)cc1` ) is 0.00326

###

measurement parameters: in methanol, 278.15 K
readout label: solubility (mole fraction)

# solubility (mole fraction) (molecule: `CCCCc1nc(Cl)c(C(=O)OCOC(=O)OC(C)C)n1Cc1ccc(-c2ccccc2-c2nn[nH]n2)cc1` ) is 0.00111
